Kindly supply the reported Foxtail, Giant plant response rating values for the records listed here.
Tested on: foxtail, giant (giant foxtail, Setaria faberii)
test.name: Test A postemergence, visual injury rating 0-100
Assay type: in vivo
particulars: 500 g ai/ha, 0 to 100 scale

Enquiry: Return reported Foxtail, Giant plant response rating; argument: CC1=[N+]([O-])C(C(=O)Nc2cccc(F)c2F)C(c2cc(C)nc(OC(F)F)c2)C1 (racemic) [Compound 83]
Return: 90

Enquiry: Same again, this time with CC1=[N+]([O-])C(C(=O)Nc2cccc(F)c2F)C(c2cc(F)ccc2C)C1 (racemic) [Compound 81]
Return: 80

Enquiry: Same again, this time with CC1=[N+]([O-])C(C(=O)Nc2cccc(F)c2F)C(c2cc(C)cc(C(F)(F)F)c2)C1 (stereo not shown) [Compound 92]
Return: 90

Enquiry: Same again, this time with CC1=[N+]([O-])C(C(=O)Nc2cccc(F)c2F)C(c2cccc(Oc3ncc(Cl)cn3)c2)C1 (racemic) [Compound 115]
Return: 70

Enquiry: Same again, this time with CC1=[N+]([O-])C(C(=O)Nc2cccc(F)c2F)C(c2ccc(C)c(C(F)(F)F)c2)C1 (racemic) [Compound 62]
Return: 80

Enquiry: Same again, this time with CC1=[N+]([O-])C(C(=O)Nc2cccc(F)c2F)C(c2ccc(C(F)(F)F)nc2)C1 (racemic) [Compound 60]
Return: 90

Enquiry: Same again, this time with CC1=[N+]([O-])C(C(=O)Nc2cccc(F)c2F)C(c2ccc(Cl)c(C(F)(F)F)c2)C1 (racemic) [Compound 104]
Return: 80

###

System: foxtail, giant (giant foxtail, Setaria faberii)
test.name: Test A preemergence, visual injury rating 0-100
Type: in vivo
particulars: 125 g ai/ha
quantity: Foxtail, Giant plant response rating (0 to 100 scale)
I'd appreciate a reply containing only the number, no unit.

Enquiry: Return reported Foxtail, Giant plant response rating (0 to 100 scale); argument: CC1=[N+]([O-])C(C(=O)Nc2cccc(F)c2F)C(c2ccc(C(F)(F)F)nc2)C1 (racemic) [Compound 60]
Return: 90

Enquiry: Same again, this time with CC1=[N+]([O-])[C@@H](C(=O)Nc2cccc(F)c2F)[C@H](c2ccc(C(F)(F)F)cc2)C1 (relative stereo) [Compound 2]
Return: 100

Enquiry: Same again, this time with CC1=[N+]([O-])C(C(=O)Nc2cccc(F)c2F)C(c2ccc(F)cc2)C1 (racemic) [Compound 9]
Return: 90

Enquiry: Same again, this time with CC1=[N+]([O-])C(C(=O)Nc2cccc(F)c2F)C(c2ccc(F)c(F)c2)C1 (racemic) [Compound 10]
Return: 80

Enquiry: Same again, this time with CC1=[N+]([O-])C(C(=O)Nc2cccc(F)c2F)C(c2cc(C)cc(CF)c2)C1 (racemic) [Compound 108]
Return: 90

Enquiry: Same again, this time with CC1=[N+]([O-])C(C(=O)Nc2cccc(F)c2F)C(c2cccc(C(F)(F)F)n2)C1 (stereo not shown) [Compound 90]
Return: 50

Enquiry: Same again, this time with CC1=[N+]([O-])C(C(=O)Nc2cccc(F)c2F)C(c2cc(F)cc(Oc3ccc(Cl)nc3)c2)C1 (racemic) [Compound 50]
Return: 90

###

Kindly supply the reported Ragweed plant response rating values for the records listed here.
Tested on: ragweed (common ragweed, Ambrosia elatior)
test.name: Test A postemergence, visual injury rating 0-100
Type: in vivo
particulars: 125 g ai/ha, 0 to 100 scale
I'd appreciate a reply containing only the number, no unit.

Enquiry: Return reported Ragweed plant response rating; argument: CC1=[N+]([O-])C(C(=O)Nc2cccc(F)c2F)C(c2cccc(C)c2)C1 (racemic) [Compound 15]
Return: 0

Enquiry: Same again, this time with CC1=[N+]([O-])C(C(=O)Nc2cccc(F)c2F)C(c2cccc(C(F)(F)F)c2C)C1 (racemic) [Compound 106]
Return: 30

Enquiry: Same again, this time with O=C(Nc1cccc(F)c1F)C1C(c2ccccc2)CC(C(F)(F)F)=[N+]1[O-] (racemic) [Compound 35]
Return: 0

Enquiry: Same again, this time with CC1=[N+]([O-])C(C)(C(=O)Nc2cccc(F)c2F)C(c2ccc(C(F)(F)F)cc2)C1 (racemic) [Compound 1]
Return: 0

Enquiry: Same again, this time with CC1=[N+]([O-])C(C(=O)Nc2cccc(F)c2F)C(c2ccc(F)c(F)c2)C1 (racemic) [Compound 10]
Return: 0

Enquiry: Same again, this time with CC1=[N+]([O-])C(C(=O)Nc2cccc(F)c2F)C(c2cccc(Oc3ncc(Cl)cn3)c2)C1 (racemic) [Compound 115]
Return: 0

Enquiry: Same again, this time with CC1=[N+]([O-])C(C(=O)Nc2cccc(F)c2Cl)C(c2ccc(C(F)(F)F)cc2)C1 (racemic) [Compound 31]
Return: 0

Enquiry: Same again, this time with CC1=[N+]([O-])C(C(=O)Nc2cccc(F)c2F)C(c2cccc(Br)n2)C1 (racemic) [Compound 65]
Return: 0

Enquiry: Same again, this time with CC1=[N+]([O-])[C@H](C(=O)Nc2cccc(F)c2F)[C@@H](c2ccc(C)cc2)C1 (relative stereo) [Compound 6]
Return: 0

Enquiry: Same again, this time with CC1=[N+]([O-])[C@H](C(=O)Nc2cccc(F)c2F)[C@@H](c2ccc(F)c(OC(F)(F)C(F)F)c2)C1 [Compound 54]
Return: 30

Enquiry: Same again, this time with COc1cccc(C2CC(C)=[N+]([O-])C2C(=O)Nc2cccc(F)c2F)n1 (racemic) [Compound 67]
Return: 0

Enquiry: Same again, this time with CC1=[N+]([O-])C(C(=O)Nc2cccc(F)c2F)C(c2cc(F)c(F)c(F)c2)C1 (stereo not drawn) [Compound 95]
Return: 0

Enquiry: Same again, this time with CC1=[N+]([O-])C(C(=O)Nc2ccc(F)c(F)c2F)C(c2ccc(C(F)(F)F)cc2)C1 (racemic) [Compound 38]
Return: 0

Enquiry: Same again, this time with COc1cc(OC)cc(C2CC(C)=[N+]([O-])C2C(=O)Nc2cccc(F)c2F)c1 (stereo not drawn) [Compound 96]
Return: 0

Enquiry: Same again, this time with CC1=[N+]([O-])C(C(=O)Nc2cccc(F)c2F)C(c2cc(C(F)(F)F)ccc2C)C1 (stereo not drawn) [Compound 98]
Return: 30

###

Kindly supply the reported Barnyardgrass plant response rating values for the records listed here.
System: barnyardgrass (Echinochloa crus-galli)
test.name: Test A postemergence, visual injury rating 0-100
Assay type: in vivo
particulars: 125 g ai/ha, 0 to 100 scale

Enquiry: Return reported Barnyardgrass plant response rating; argument: CC1=[N+]([O-])C(C(=O)Nc2cccc(F)c2F)C(c2cc(C)cc(C)c2)C1 (racemic)
Return: 70

Enquiry: Same again, this time with CC1=[N+]([O-])C(C(=O)Nc2cccc(F)c2F)C(c2ccc(F)cc2Oc2ncc(F)cn2)C1 (racemic)
Return: 0

Enquiry: Same again, this time with CC1=[N+]([O-])C(C(=O)Nc2cccc(F)c2F)C(c2ccc(F)c(Oc3ccc(Cl)nc3)c2)C1 (racemic)
Return: 0

Enquiry: Same again, this time with CC1=[N+]([O-])[C@@H](C(=O)Nc2cccc(F)c2F)[C@H](c2ccc(F)c(F)c2)C1
Return: 60

Enquiry: Same again, this time with CC1=[N+]([O-])[C@@H](C(=O)Nc2ccccc2F)[C@H](c2ccc(C(F)(F)F)cc2)C1 (relative stereo)
Return: 60

Enquiry: Same again, this time with CC1=[N+]([O-])C(C(=O)Nc2cccc(F)c2F)C(c2ccccc2F)C1 (racemic)
Return: 0

Enquiry: Same again, this time with CC1=[N+]([O-])C(C(=O)Nc2cccc(F)c2F)C(c2cccc(Cl)n2)C1 (centres unmarked)
Return: 20

Enquiry: Same again, this time with CC1=[N+]([O-])C(C(=O)Nc2cccc(F)c2F)C(c2ccc(F)c(C(F)(F)F)c2)C1 (racemic)
Return: 70

Enquiry: Same again, this time with COc1cc(C)cc(C2CC(C)=[N+]([O-])C2C(=O)Nc2cccc(F)c2F)c1 (centres unmarked)
Return: 70

Enquiry: Same again, this time with CC1=[N+]([O-])[C@H](C(=O)Nc2cccc(F)c2F)[C@@H](c2ccc(F)c(OC(F)(F)C(F)F)c2)C1
Return: 70

Enquiry: Same again, this time with COc1ccc(C2CC(C)=[N+]([O-])C2C(=O)Nc2cccc(F)c2F)cc1C(F)(F)F (racemic)
Return: 80

Enquiry: Same again, this time with CC1=[N+]([O-])C(C(=O)Nc2cccc(F)c2F)C(c2ccc(F)c(F)c2)C1 (racemic)
Return: 40

Enquiry: Same again, this time with CCc1cc(CC)cc(C2CC(C)=[N+]([O-])C2C(=O)Nc2cccc(F)c2F)c1 (racemic)
Return: 50

Enquiry: Same again, this time with CC1=[N+]([O-])[C@H](C(=O)Nc2cccc(F)c2F)[C@@H](c2ccc(C)cc2)C1 [Compound 42]
Return: 90

Enquiry: Same again, this time with CC1=[N+]([O-])C(C(=O)Nc2cccc(F)c2F)C(c2cccc(Oc3ncc(Cl)cn3)c2)C1 (racemic)
Return: 0

Enquiry: Same again, this time with CC1=[N+]([O-])C(C(=O)Nc2cccc(F)c2F)C(c2ccccc2)C1 (racemic) [Compound 16]
Return: 80

Enquiry: Same again, this time with CC1=[N+]([O-])[C@H](C(=O)Nc2ccc(F)nc2F)[C@@H](c2ccc(C(F)(F)F)cc2)C1 (relative stereo)
Return: 40

Enquiry: Same again, this time with CC1=[N+]([O-])C(C(=O)Nc2cccc(F)c2F)C(c2cccc(Cl)c2C)C1 (racemic)
Return: 60

Enquiry: Same again, this time with COc1cc(C2CC(C)=[N+]([O-])C2C(=O)Nc2cccc(F)c2F)ccc1C(F)(F)F (centres unmarked)
Return: 70

Enquiry: Same again, this time with CC1=[N+]([O-])C(C(=O)Nc2cccc(C#N)c2F)C(c2ccc(C(F)(F)F)cc2)C1 (racemic)
Return: 20

Enquiry: Same again, this time with CC1=[N+]([O-])C(C(=O)Nc2cccc(F)c2F)C(c2cccc(C3OCCO3)c2)C1 (racemic)
Return: 30

Enquiry: Same again, this time with CC1=[N+]([O-])[C@@H](C(=O)Nc2cccc(F)c2F)[C@H](c2cccc(OC(C)C)c2)C1
Return: 60

Enquiry: Same again, this time with CC1=[N+]([O-])[C@H](C(=O)Nc2cccc(F)c2F)[C@@H](c2ccc(C(F)(F)F)cc2)C1
Return: 70

Enquiry: Same again, this time with CC1=[N+]([O-])[C@H](C(=O)Nc2cccc(F)c2F)[C@@H](c2ccc(C)cc2)C1 (relative stereo) [Compound 6]
Return: 90

Enquiry: Same again, this time with CC1=[N+]([O-])C(C(=O)Nc2cccc(F)c2F)C(c2cccc(C(F)(F)F)n2)C1 (centres unmarked)
Return: 10

Enquiry: Same again, this time with CC1=[N+]([O-])C(C(=O)Nc2cccc(F)c2F)C(c2cccc(Oc3ccc(F)cc3)c2)C1 (racemic)
Return: 10

Enquiry: Same again, this time with CC1=[N+]([O-])C(C(=O)Nc2cccc(F)c2F)C(c2cccc3c2CCC3)C1 (racemic)
Return: 60

Enquiry: Same again, this time with CC1=[N+]([O-])C(C(=O)Nc2cccc(F)c2Cl)C(c2ccc(C(F)(F)F)cc2)C1 (racemic)
Return: 30

Enquiry: Same again, this time with O=C(Nc1cccc(F)c1F)C1C(c2ccccc2)CC(C(F)(F)F)=[N+]1[O-] (racemic)
Return: 0
